Tested on: NCI-H522
Test: NCI tumour cell line growth inhibition, 48 h
The source made the active and inactive calls. No stated cut-off is given here; in the data, active = GI50 up to about 1.1 µM and inactive = higher.
Outcomes: class 1 = active, class 0 = inactive

1) Cc1ccnc2nc(-c3cccc4ccccc34)cc(O)c12: class 1
2) COc1cc2c(c(OC)c1OC)C(=O)[C@@H]1[C@H]2N1C(=O)NCCCl: class 0
3) Cc1cccc(NS(=O)(=O)c2ccc(/N=N/c3c(O)c(C(=O)O)cc4ccccc34)cc2)n1: class 0
4) CC(C)NC1CCCCC2c3cc(F)ccc3[C@]12O (stereo partly specified): class 0
5) NCCNC(=S)S: class 0
6) COc1ccc(C2SC(=N)Nc3c2c(C)nn3C(=O)c2ccc(Cl)cc2)cc1 (stereo unspecified): class 0
7) C#CC(C)(C)Oc1cc(O)c2c(=O)c3ccccc3n(C)c2c1: class 0
8) COc1cc2c3c(n(C)c(=O)c2cc1OC)-c1cc2c(cc1/C3=C\CCCCl)OCO2: class 0
9) Cc1nc2c(=O)n(C)c(=O)nc-2n(CCO)c1C: class 0
10) O=C(NN=C1CCCCC1)Nc1ccccc1Cl: class 0
11) BrC1=CC=C2NC=CC3=CC=NC1C32 (stereo unspecified): class 0

* * *

Tested on: KM12
Experiment: NCI tumour cell line growth inhibition, 48 h
The source made the active and inactive calls. Cut-off read from the data, not from the text of the source: active = GI50 up to about 1.1 µM and inactive = higher.
measured_endpoint: GI50

1) COC(=O)C1=COC2OC3/C(=C\c4ccc(O)c(OC)c4)C(=O)OC34C=CC1C24 (stereo unspecified): 13.8 µM (inactive)
2) O=C1C(c2cnc3ccccc3n2)=C(O)c2ccccc21: 7.08 µM (inactive)
3) N/C(=N\N=C=C1C(=O)Nc2ccc(F)cc21)NO: 41.4 µM (inactive)
4) COc1ccc2c3c1C(=O)CCC3CO2 (stereo unspecified): > 100 µM (inactive)
5) COc1ccc(/C=N/Nc2nc(-c3cc4oc(=O)n(C)c4cc3Cl)cs2)cc1OC: 18.8 µM (inactive)
6) COc1ccc(CC(C)NCC(O)c2ccc(O)c(NC=O)c2)cc1 (stereo unspecified): > 100 µM (inactive)
7) CC(C)[C@]12O[C@H]1[C@@H]1O[C@@]13[C@@]1(C)CCC4=C(COC4=O)[C@@H]1C[C@@H]1O[C@@]13C2=O [TRIPTONIDE]: 0.824 µM (active)
8) CSc1c2c(C)n[nH]c2nn1-c1ccccc1: 68.7 µM (inactive)
9) O=C1c2ccccc2/C=C\C(c2ccccc2)=N/N1c1ccccc1Cl: 11.6 µM (inactive)
10) O=C1CCCc2ccc([N+](=O)[O-])c(O)c21: > 100 µM (inactive)
11) COc1cc(/C=C2\C(=O)N(Cc3ccccc3)C(c3ccccc3)S2(=O)=O)cc(OC)c1OC (stereo unspecified): 34.7 µM (inactive)
12) COC(=O)C1(c2ccc(N(C)C)cc2OC)CCCN(C(=O)Oc2ccccc2[N+](=O)[O-])CCc2c1[nH]c1ccccc21 (stereo unspecified): > 100 µM (inactive)
13) COC(=O)c1c(C)cccc1C1CN=NC12Cc1ccccc1C2=O (stereo unspecified): > 78 µM (inactive)
14) CN1CCN([C@H]2C[C@H]3[C@@H]4CC=C5C[C@@H](N6CCCC6)CC[C@]5(C)[C@H]4CC[C@]3(C)[C@H]2O)CC1: 56 µM (inactive)
15) CCCCOC(=O)C(NC(C(=O)OCCCC)c1cc(C(C)(C)C)c(O)c(C(C)(C)C)c1)c1cc(C(C)(C)C)c(O)c(C(C)(C)C)c1 (stereo unspecified): > 100 µM (inactive)
16) CCSC1(SCC)CCN(/C=N/C(C)(C)C)C1: > 100 µM (inactive)
17) Oc1nnc(-c2ccc(F)cc2)cc1-c1ccccc1: > 100 µM (inactive)
18) Cc1noc2cccc(O)c12: > 100 µM (inactive)
19) CSCCC(C(=O)O)N(C)C (stereo unspecified): > 100 µM (inactive)
20) Cc1cc(NS(=O)(=O)c2ccc(NC(=O)c3cccc4c(N)c5ccccc5nc34)cc2)no1: 18.9 µM (inactive)
21) COc1cccc(CCCNC(=O)Cc2ccccc2CO)c1: > 100 µM (inactive)

This collection of values is drawn from ChEMBL document CHEMBL1201862.
